# Ki per entry
Molecular target: S-adenosylmethionine synthetase (MAT 1 and MAT 2) (Rattus norvegicus, UniProt P13444+P18298)
Assay: Inhibition constant of ATP varied compound was measured on MT variant methionine adenosyltransferase in rat ascitic hepatoma cells
Assay type: cell-based
Dear colleague, please return just the value in nM, with no unit written.

Here is how some compounds turned out for Ki.
According to the records, this compound Nc1ncnc2c1ncn2[C@@H]1O[C@H](C(CCOP(=O)(O)OP(=O)(O)NP(=O)(O)O)SCCC(N)C(=O)O)[C@@H](O)[C@H]1O (some centres undefined) displays Ki of 810

According to the records, this compound Nc1ncnc2c1ncn2[C@@H]1O[C@H]([C@H](CSCCC(N)C(=O)O)OP(=O)(O)OP(=O)(O)NP(=O)(O)O)[C@@H](O)[C@H]1O (some centres undefined) displays Ki of 210

compound Nc1ncnc2c1ncn2[C@@H]1O[C@H](CC(CSCC[C@H](N)C(=O)O)OP(=O)(O)OP(=O)(O)NP(=O)(O)O)[C@@H](O)[C@H]1O (some centres undefined) , Ki observed: 630

Turning to the following compound.
Reported Ki of Nc1ncnc2c1ncn2[C@@H]1O[C@H]([C@@H](CNP(=O)(O)OP(=O)(O)OP(=O)(O)O)SCCC(N)C(=O)O)[C@@H](O)[C@H]1O (some centres undefined) : 270

---

Target: S-adenosylmethionine synthetase (MAT 1 and MAT 2) (Rattus norvegicus, UniProt P13444+P18298)
Test: Inhibition constant of Met varied compound was measured on MT variant methionine adenosyltransferase in rat ascitic hepatoma cells
Type: cell-based
In this section, each of the compounds is paired with its reported Ki.

Known results for compounds:
Ki reported for this compound Nc1ncnc2c1ncn2[C@@H]1O[C@H](C(CCOP(=O)(O)OP(=O)(O)NP(=O)(O)O)SCCC(N)C(=O)O)[C@@H](O)[C@H]1O (some centres undefined) : 1.5 µM

Entry under test: Nc1ncnc2c1ncn2[C@@H]1O[C@H](CC(CSCC[C@H](N)C(=O)O)OP(=O)(O)OP(=O)(O)NP(=O)(O)O)[C@@H](O)[C@H]1O (some centres undefined) . Its Ki was 2.7 µM

Lab book: Ki of Nc1ncnc2c1ncn2[C@@H]1O[C@H]([C@@H](CNP(=O)(O)OP(=O)(O)OP(=O)(O)O)SCCC(N)C(=O)O)[C@@H](O)[C@H]1O (some centres undefined) noted as 2.3 µM

Further cases:
Per the records, this compound ( Nc1ncnc2c1ncn2[C@@H]1O[C@H]([C@H](CSCCC(N)C(=O)O)OP(=O)(O)OP(=O)(O)NP(=O)(O)O)[C@@H](O)[C@H]1O (some centres undefined) ) has Ki equal to 0.67 µM
